Assay: Quantitative High-Throughput drug screen in 47 multiple myeloma cell lines against the NCATS MIPE library collection: MMM1_PLB cell viability assay (AID 1918976); further: nearly all actives have a fitted effect of over 35% in size
Conditions: MMM1 myeloma cells viability, CellTiter-Glo, 48 h; series mostly up to 45.8 µM
Records with an inconclusive call do not appear. The source made the active and inactive calls. The call rests on the fitted dose curve; in most records, active means well fitted cell-killing curve with a large enough effect; inconclusive means small, poorly fitted or top-dose-only effect, or effect the other way; inactive means no such curve, though single readings can be large or run the other way.
Reply using exactly one outcome from 1.0 (active), 0.0 (inactive)

Outcome logged for CC(C)=CCCC(C)=CCCC(C)=CCCC(C)=CCCC(C)=CCCC(C)=CCCC(C)=CCCC(C)=CCCC(C)=CCO in this assay:
0.0

Which outcome was assigned to CN1C(=O)C(Cc2c[nH]c3ccccc23)NC1=S (stereo not given) in this test?
1.0

Short answer needed: outcome of this test for NS(=O)(=O)c1cc(Cl)c(Cl)c(S(N)(=O)=O)c1 ?
1.0

Record request — test call for CN(C)CCOc1ccc(C(=C(CCCl)c2ccccc2)c2ccccc2)cc1
1.0

Given Cc1c(C(=O)Nc2ccc(N3C[C@@H](C)O[C@@H](C)C3)nc2)cccc1-c1ccc(OC(F)(F)F)cc1 , state the outcome it received in this test.
1.0

* * *

Assay: Quantitative High-Throughput drug screen in 47 multiple myeloma cell lines against the NCATS MIPE library collection: KMS12PE_JCRB cell viability assay (AID 1918972); further: nearly all actives have a fitted effect of over 30% in size; further: potency means the concentration at half of the fitted maximal effect;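 on viability: 100% = DMSO only wells and 0% = wells with media alone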
Conditions: KMS12PE myeloma viability, CellTiter-Glo ATP, 48 h; series mostly up to 45.8 µM
Results filed as inconclusive are left out. The source made the active and inactive calls. Calls come from the whole dose curve; as a rule, active = well fitted cell-killing curve with a large enough effect; inconclusive = small, poorly fitted or top-dose-only effect, or effect the other way; inactive = no such curve, though single readings can be large or run the other way.
METRIC: Potency

N[C@@H](CC(=O)N1CCn2c(nnc2C(F)(F)F)C1)Cc1cc(F)c(F)cc1F | inactive
CNC(=O)c1cc(COc2nnc(Nc3ccc(Cl)cc3)c3ccoc23)ccn1 | 6.62 µM (active)
Cc1cc(NC(=O)Nc2ccc(N(C)C)cc2)c2cc(F)cc(F)c2n1 | 1.66 µM (active)
COc1ccc(CCC(=O)Nc2nc3ccc(Cl)cc3s2)cc1OC | inactive
C[C@@H]1O[C@@H](O[C@H]2CC[C@@]3(C)[C@H](CC[C@@H]4[C@H]3C[C@@H](O)[C@]3(C)[C@@H](C5=CC(=O)OC5)CC[C@]43O)C2)C[C@H](O)[C@@H]1O[C@H]1C[C@H](O)[C@H](O[C@H]2C[C@H](O)[C@@H](O)[C@@H](C)O2)[C@H](C)O1 (stereo in doubt) | 0.054 µM (active)

Notebook: CC(C)c1c(C(=O)Nc2ccccc2)c(-c2ccccc2)c(-c2ccc(F)cc2)n1CC[C@H](O)C[C@@H](O)CC(=O)O , Potency read as 6.62 µM (active)

Lab book: Potency of Oc1ccc(C=Cc2cc(O)cc(O)c2)cc1 noted as inactive

For reference, reported Potency for CCC(=O)NCC[C@@H]1CCc2ccc3c(c21)CCO3 stands at inactive

Potency recorded for this compound, Cc1nc(NC(=O)N2CCC[C@@H]2C(N)=O)sc1-c1csc(C(C)(C)C)n1 , is 4.69 µM (active)

Potency reading for O=C(Nc1cccc2c(=O)cc(-c3nn[nH]n3)oc12)c1ccc(OCCCCc2ccccc2)cc1 : 20.9 µM (active)

* * *

Test system: UISO
Experiment: qHTS assay to identify novel small-molecules to repurpose for Merkel cell carcinoma treatment (AID 1296009); further: nearly all actives have a fitted effect of over 60% in size
Conditions: MCC and control cell lines, CellTiter-Glo viability, 72 h; series mostly up to 46 µM
Results filed as inconclusive are left out. Activity calls are given as the source filed them. The call rests on the fitted dose curve; in most records, active means well fitted inhibition curve with a large enough effect; inconclusive means small, poorly fitted or top-dose-only effect; inactive means flat fitted curve, though single readings scatter.
Log the outcome using a class from active, inactive

Given CC1(C)[C@H]2CC[C@]3(C)[C@@H](C(=O)C=C4[C@@H]5C[C@@](C)(C(=O)O)CC[C@]5(C)CC[C@]43C)[C@@]2(C)CC[C@@H]1O , state the outcome it received in this test.
inactive

How was Cn1c(=O)c(-c2c(Cl)cccc2Cl)cc2cnc(Nc3cccc(C(=O)O)c3)nc21 classified in this test?
inactive

Just curious, what result did COC(=O)[C@H](c1ccccc1Cl)N1CCc2sccc2C1 get here?
inactive

Tell me the assay call for COc1ccnc(CS(=O)c2nc3ccc(OC(F)F)cc3[nH]2)c1OC (configuration not stated) please.
inactive

What was the test verdict on CN1CCN(c2cccc(Nc3nc4c(-c5ccc(S(C)(=O)=O)cc5)cccn4n3)c2)CC1 ?
inactive

// return assay outcome for O=C1CCCC(=O)C1C(=O)c1ccc(C(F)(F)F)cc1[N+](=O)[O-]
inactive

Given COc1ccc(-c2oc3c(CC=C(C)C)c(O)cc(O)c3c(=O)c2O)cc1 , state the outcome it received in this test.
inactive

What is the recorded call for this compound in the test? COc1ccc2c(c1)CC[C@H]1[C@@H]2CC[C@]2(C)[C@@H](NCCCCCCN3C(=O)C=CC3=O)CC[C@H]12
inactive

// return assay outcome for C[C@]12CC[C@@H]3c4ccc(O)cc4CC[C@H]3[C@H]1[C@@H](O)[C@@H](O)[C@H]2O
inactive

# outcome recorded in this test, key = CO[C@H]1/C=C\O[C@@]2(C)Oc3c(C)c(O)c4c(O)c(c5c(nc6cc(C)ccn65)c4c3C2=O)NC(=O)C(C)=CC=C[C@H](C)[C@H](O)[C@@H](C)[C@@H](O)[C@@H](C)[C@H](OC(C)=O)[C@H]1C
inactive

Please indicate how the test categorized O=S(=O)(O)c1ccc2cc(N=Nc3cc(S(=O)(=O)O)c4cccnc4c3O)ccc2c1 .
inactive

Outcome logged for CCCCCCOC(=O)N=C(N)c1ccc(NCc2nc3cc(C(=O)N(CCC(=O)OCC)c4ccccn4)ccc3n2C)cc1 in this assay:
inactive

I would be grateful if you could indicate the recorded call for CCOC(=O)N1c2ccc(C(F)(F)F)cc2[C@@H](N(Cc2cc(C(F)(F)F)cc(C(F)(F)F)c2)C(=O)OC)C[C@H]1CC .
inactive

Call for entry CC1CNc2c(cccc2S(=O)(=O)N[C@@H](CCCN=C(N)N)C(=O)N2CC[C@@H](C)C[C@@H]2C(=O)O)C1 (some centres not stated) :
inactive

Recorded call for Cc1ccc(S(=O)(=O)Nc2nc3ccccc3nc2Nc2ccc3nsnc3c2)cc1 ?
active

Name the outcome recorded for Cc1cccc(-c2[nH]c(C(C)(C)C)nc2-c2ccc3c(c2)OCO3)n1 in the assay.
active

So what was the verdict on Cc1ccc2c(=O)c3cccc(CC(=O)O)c3oc2c1C in this test?
inactive

* * *

Assay: qHTS of pediatric cancer cell lines to identify multiple opportunities for drug repurposing: Primary screen for control Hh wild type fibroblast cells (AID 1347106);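 further: a drop in luminescence marks cytotoxicity and a rise apparent proliferation; nearly all actives have a fitted effect of over 55% in size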
Settings: Hh wild-type fibroblast viability, CellTiter-Glo luminescence, 48 h; series mostly up to 46 µM
Inconclusive results are not listed. The source made the active and inactive calls. Calls come from the whole dose curve; as a rule, active = well fitted cell-killing curve with a large enough effect; inconclusive = small, poorly fitted or top-dose-only effect; inactive = flat fitted curve, though single readings scatter.
METRIC: outcome

Sample records with outcome:
COc1cc(N2CCN(C)CC2)ccc1Nc1nc(N)c(C(=O)c2c(Cl)cccc2Cl)s1 | inactive
O=C(Nc1cccc2c(=O)cc(-c3nn[nH]n3)oc12)c1ccc(OCCCCc2ccccc2)cc1 | inactive
COc1ccc(-c2oc3c(CC=C(C)C)c(O)cc(O)c3c(=O)c2O)cc1 | inactive
N=C1SC(=Cc2ccc(-c3ccc4c(c3)C(=O)NC4=O)o2)C(=O)N1c1ccc(Br)cc1 | inactive
CCCCCOC(=O)Nc1nc(=O)n([C@@H]2O[C@H](C)[C@@H](O)C2O)cc1F (some centres undefined) | inactive

Kindly note the recorded outcome for Cc1ccc2c(=O)c3cccc(CC(=O)O)c3oc2c1C , which is inactive

// outcome value for Cc1ccc(NC(=O)Nc2cc(C(F)(F)F)ccc2F)cc1Nc1ccc2c(c1)NC(=O)C2=Cc1ccc[nH]1 : inactive

Sample C[C@]12C=CC(=O)C=C1CC[C@@H]1[C@@H]2[C@@H](O)C[C@@]2(C)[C@@H]1CC[C@]2(O)C(=O)CO ; outcome observed: inactive

# outcome of Cc1ccccc1C(=O)c1ccc(Nc2ccc(Br)cc2N)cc1Cl = inactive

* * *

Experiment: qHTS drug screen for cell cycle checkpoint inhibitors in PARPi-resistant BRCA-mutant ovarian cancer cell lines. (AID 1963452)
Details: PEO1/OlaR viability, CellTiter-Glo luminescence, 96 h; measured here: PEO4 Z-AUC; stronger effect = lower value
METRIC: Z-AUC
Just the number, please, no unit attached.

Given item CCC(=O)NCC[C@@H]1CCc2ccc3c(c21)CCO3 , the value recorded as its Z-AUC is 0.501

The recorded Z-AUC for entry CN(C)c1ccc(-c2nc3ncc(Cl)c(N4CCN(CC(=O)Nc5nccs5)CC4)c3[nH]2)cc1 equals -1.61

Input CC(=O)Nc1cccc(-n2c(=O)n(C3CC3)c(=O)c3c(Nc4ccc(I)cc4F)n(C)c(=O)c(C)c32)c1 . Output Z-AUC: -1.07

In plain terms, O=C(Nc1cccc(C(F)(F)F)c1)Nc1cc(S(=O)(=O)NC2CC2)ccc1-c1ccsc1 has a documented Z-AUC of -0.479

The reported value for COc1ccc2c(c1)c(C1=C(c3c[nH]c4ccccc34)C(=O)NC1=O)cn2CCCN(C)C in terms of Z-AUC is -1.4

// sample O=c1[nH]nc(OCCCc2ccc(Cl)cc2)c(NCc2cccnc2)c1Br , its Z-AUC was -1.42

The reported Z-AUC of the molecule COc1c(C)cnc(Cn2cnc3c(Cl)nc(N)nc32)c1C was -0.434

For COc1cc2c(cc1OC)CC(=O)N(CCCN(C)C[C@H]1Cc3cc(OC)c(OC)cc31)CC2 the molecule record lists Z-AUC as 0.443

Note to self: Z-AUC recorded for CC(C)(OCc1nn(Cc2ccccc2)c2ccccc12)C(=O)O was 1.54

The reported Z-AUC of the molecule Cc1ccc(NC(=O)c2cccc(N(C)C)c2)cc1NC(=O)c1ccc(O)cc1 was 0.905
